- target system: TbtF
- assay explanation: fluorescence polarisation
measurement type: pIC50
Bear in mind: pIC50 is minus log10 of a mol/L concentration; give just that figure.

Check out these entries, answers already filled in.
• MDLNDLPMDVFELADSGVAVESLTAGHGMTEAGASCNCFCYICCSCSSA [TbtA V(−3)A] = 6.24
• MDLNDLPMDVFELADSGVAVESLTAGHGMTEVGASCNCFCYICCSCSSA [TbtA wild-type] = 6.17
• MDLADLPMDVFELADSGVAVESLTAGHGMTEVGASCNCFCYICCSCSSA [TbtA N(−31)A] = 6.24
• MDLNDLPMDVFELADSGVAVESATAGHGMTEVGASCNCFCYICCSCSSA [TbtA L(−12)A] = 6.15
• MDLNDLPMDVFELADSGVAVESLAAGHGMTEVGASCNCFCYICCSCSSA [TbtA T(−11)A] = 6.29

Exercise: Output measured pIC50 for this item: MDLNDLPMDVFELADSGVAVASLTAGHGMTEVGASCNCFCYICCSCSSA [TbtA E(−14)A]
Solution: 5.86
